target: hCA IX (Homo sapiens)
readout type: Ki (nM)

1. NS(=O)(=O)c1ccc(N2CC[C@H](NC(=O)Nc3ccc4c(c3)OCCO4)C2)nc1 [15b] | 82
2. NS(=O)(=O)c1ccc(N2CCC(NC(=O)Nc3ccc(Cl)c(C(F)(F)F)c3)C2)nc1 (stereo in doubt) [10b] | 77.5

1: COc1ccccc1NC(=O)N[C@H]1CCN(c2ccc(S(N)(=O)=O)cn2)C1 [18b]
2: NS(=O)(=O)c1cccc(NC(=O)N[C@H]2CCN(c3cccc([N+](=O)[O-])n3)C2)c1 [44b]
[Q] Which entry has a larger number for Ki, 1 or 2 ? Answer by stating the label of the chosen item.
[A] 2
(2: 193 nM, 1: 61.8 nM)
